TESTED SYSTEM: T1, soluble heterodimeric hCD3ε/δ.mFc protein (human)
T1 construct: also called soluble human CD3; human CD3 heterodimeric protein
T1 sequence (P07766 23-126, stated change not applied, chain 1 of 2): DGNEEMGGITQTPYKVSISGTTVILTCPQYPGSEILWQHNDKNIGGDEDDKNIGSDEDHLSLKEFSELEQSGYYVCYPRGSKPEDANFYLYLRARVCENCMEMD
T1 sequence (P04234 22-105, stated change not applied, chain 2 of 2, further chain): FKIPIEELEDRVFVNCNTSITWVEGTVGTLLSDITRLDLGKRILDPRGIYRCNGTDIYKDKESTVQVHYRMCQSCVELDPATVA
ASSAY INFO: SPR 37 C, antigen-capture format
MEASURED ATTRIBUTE: T½ (min)
Number in min, nothing else.

Data request: Returns the measured T½ for the input binder. Input: BSPSMA/CD3-005 (bispecific antibody) chain 1: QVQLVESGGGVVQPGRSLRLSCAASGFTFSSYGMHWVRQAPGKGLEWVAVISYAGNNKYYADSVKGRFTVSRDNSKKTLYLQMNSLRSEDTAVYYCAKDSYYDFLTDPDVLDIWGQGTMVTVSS chain 2: EVQLVESGGGLVQPGRSLRLSCAASGFTFDDYSMHWVRQAPGKGLEWVSGISWNSGSIGYADSVKGRFTISRDNAKNSLYLQMNSLRAEDTALYYCAKYGSGYGKFYYYGMDVWGQGTTVTVSS chain 3: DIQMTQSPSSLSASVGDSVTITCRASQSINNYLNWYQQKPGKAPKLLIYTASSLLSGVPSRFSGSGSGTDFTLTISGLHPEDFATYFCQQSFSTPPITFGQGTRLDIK
Data returned: 2

The origin of these recorded values is patent US20210253701A1.
